- Test system: hiPSC-CM syncytia
- protocol: Spontaneous FP rate and IMP amplitude/beating rate in hiPSC-CM syncytia (RTCA CardioECR / RTCA Cardio)
- Type: cell-based, human
- experimental_conditions: prodrug co-administered with 0.3 μM amiodarone, steady state (4 h), spontaneously beating hiPSC-CM syncytia

| compound | Effect on FP rate |
| --- | --- |
| C#C[C@]1(C)[C@@H](O)[C@@H](COP(=O)(N[C@H](C)C(=O)OC(C)C)Oc2ccccc2)O[C@H]1n1ccc(=O)[nH]c1=O (stereo partly drawn) | lack of effects |
| CC(C)OC(=O)[C@@H](C)NP(=O)(OC[C@H]1O[C@@H](n2ccc(=O)[nH]c2=O)[C@](C)(F)[C@@H]1O)Oc1ccccc1 (stereo partly drawn) | lack of effects |
| CC(C)OC(=O)[C@@H](C)NP(=O)(OC[C@H]1O[C@@H](n2ccc(=O)[nH]c2=O)[C@](C)(Cl)[C@@H]1O)Oc1ccccc1 (stereo partly drawn) | lack of effects |

Reference for the values: paper PMC5361079
